# Test system: normal primary NK cells, pool 3 (3 donors) (IL-2 2.5 ng/mL)
# assayDetails: percent inhibition of viability; higher = more inhibition;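 note: normalised to DMSO-only wells as negative and benzethonium chloride as positive control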
# conditionInfo: 72 h; 1000 nM
// reported percent inhibition of viability for each item listed
parameter: percent inhibition of viability (%)

- compound: "CN(c1ccccc1CNc1nc(Nc2ccc3c(c2)CC(=O)N3)ncc1C(F)(F)F)S(C)(=O)=O (max concentration tested 10000 nM)"
  parameter: "percent inhibition of viability"
  numericReadout: 15.6
- compound: "Oc1ncc(N(CCCl)CCCl)c(O)n1 [Uramustine] (max concentration tested 10000 nM)"
  parameter: "percent inhibition of viability"
  numericReadout: 4.62
- compound: "COc1cc(O)c2c(c1)/C=C/C[C@H](O)[C@H](O)C(=O)/C=C\\C[C@H](C)OC2=O [(5Z)-7-Oxozeaenol] (max concentration tested 10000 nM)"
  parameter: "percent inhibition of viability"
  numericReadout: 13.6

---

# System: IMC-1 (IL-2 20 ng/mL)
# assayDetails: percent inhibition of viability; higher = more inhibition
# conditionInfo: 72 h; 10 nM
// reported percent inhibition of viability for each item listed
parameter: percent inhibition of viability

- compound: "N#CC(c1ccnc(OCc2ccc(CN3CCOCC3)cc2)n1)c1nc2ccccc2s1 (stereo not given) [Bentamapimod] (max concentration tested 10000 nM)"
  result: "-4.76%"
- compound: "FC(F)(F)c1ccc(/C=C/c2nc(COc3ccc(CCCCn4ccnn4)cc3)co2)cc1 [Mubritinib] (max concentration tested 1000 nM)"
  result: "37.2%"
- compound: "CC1=C(/C=C/C(C)=C/C=C/C(C)=C/C(=O)O)C(C)(C)CCC1 [Tretinoin] (max concentration tested 10000 nM)"
  result: "-8.65%"
- compound: "COc1ccc(C[C@H](NC(=O)[C@H](C)NC(=O)CN2CCOCC2)C(=O)N[C@@H](Cc2ccccc2)C(=O)C2(C)CO2)cc1 (stereo in doubt) [ONX-0914] (max concentration tested 10000 nM)"
  result: "-0.04%"
- compound: "Cc1c2oc3c(C)ccc(C(=O)N[C@@H]4C(=O)N[C@H](C(C)C)C(=O)N5CCC[C@H]5C(=O)N(C)CC(=O)N(C)[C@@H](C(C)C)C(=O)O[C@@H]4C)c3nc-2c(C(=O)N[C@@H]2C(=O)N[C@H](C(C)C)C(=O)N3CCC[C@H]3C(=O)N(C)CC(=O)N(C)[C@@H](C(C)C)C(=O)O[C@@H]2C)c(N)c1=O [Dactinomycin] (max concentration tested 1000 nM)"
  result: "38.1%"
- compound: "C#Cc1cccc(Nc2ncnc3cc4c(cc23)OCCOCCOCCO4)c1 [Icotinib] (max concentration tested 10000 nM)"
  result: "-2.04%"
- compound: "COc1cccc2c1c(O)c(C(=O)N(C)c1ccc(C(F)(F)F)cc1)c(=O)n2C [Tasquinimod] (max concentration tested 10000 nM)"
  result: "-0.26%"
- compound: "CCc1c2c(nc3ccc(OC(=O)N4CCC(N5CCCCC5)CC4)cc13)-c1cc3c(c(=O)n1C2)COC(=O)[C@]3(O)CC [Irinotecan] (max concentration tested 10000 nM)"
  result: "-6.08%"
- compound: "CC1(C)CCC(CN2CCN(c3ccc(C(=O)NS(=O)(=O)c4ccc(NCC5CCOCC5)c([N+](=O)[O-])c4)c(Oc4cnc5[nH]ccc5c4)c3)CC2)=C(c2ccc(Cl)cc2)C1 [Venetoclax] (max concentration tested 1000 nM)"
  result: "-1.24%"
- compound: "CCc1nc(-c2cccc(C)c2)c(-c2ccnc(NC(=O)c3ccccc3)c2)s1 [TAK-715] (max concentration tested 10000 nM)"
  result: "1.07%"

---

# Test system: NK-YS (IL-2 2.5 ng/mL)
# assayDetails: percent inhibition of viability; higher = more inhibition
# conditionInfo: 72 h; 100 nM

- molecule: "C[C@H]1C[C@@H]2[C@H]([C@@H](O)C[C@@]3(C)[C@H]2CC[C@]3(O)C(=O)CO)[C@@]2(C)C=CC(=O)C=C12 [Methylprednisolone] (max concentration tested 10000 nM)"
  percent inhibition of viability: "0.39%"
- molecule: "O=C(/C=C/c1cccnc1)NCCCCC1CCN(C(=O)c2ccccc2)CC1 [Daporinad] (max concentration tested 1000 nM)"
  percent inhibition of viability: "107%"
- molecule: "COc1cc2c(cc1O)CC[C@@H]1[C@@H]2CC[C@]2(C)[C@@H](O)CC[C@@H]12 [2-methoxyestradiol] (max concentration tested 10000 nM)"
  percent inhibition of viability: "5.43%"
- molecule: "OC[C@H]1O[C@@H](n2cnc3c2N=CNC[C@H]3O)C[C@@H]1O [Pentostatin] (max concentration tested 10000 nM)"
  percent inhibition of viability: "-3.05%"
- molecule: "CN(c1ncccc1CNc1nc(Nc2ccc3c(c2)CC(=O)N3)ncc1C(F)(F)F)S(C)(=O)=O (max concentration tested 10000 nM)"
  percent inhibition of viability: "-8.54%"
- molecule: "Cc1cc(C(C)Nc2ccccc2)c2nc(N3CCOCC3)cc(=O)n2c1 (stereo unspecified) [TGX-221] (max concentration tested 10000 nM)"
  percent inhibition of viability: "-1.28%"
- molecule: "CC1=C(/C=C/C(C)=C/C=C/C(C)=C/C(=O)O)C(C)(C)CCC1 [Tretinoin] (max concentration tested 10000 nM)"
  percent inhibition of viability: "9.86%"
- molecule: "O=C(Nc1cccc(Cl)c1)Nc1ncc(CCNc2ncnc3ccsc23)s1 [SNS-314] (max concentration tested 1000 nM)"
  percent inhibition of viability: "70.4%"
- molecule: "CNC(=O)c1cc(Oc2ccc(NC(=O)Nc3cc(C(C)(C)C)nn3-c3ccc4ncccc4c3)c(F)c2)ccn1 [Rebastinib] (max concentration tested 1000 nM)"
  percent inhibition of viability: "1.01%"
- molecule: "COc1ncc(-c2ccc3nccc(-c4ccnnc4)c3c2)cc1NS(=O)(=O)c1ccc(F)cc1F [Omipalisib] (max concentration tested 1000 nM)"
  percent inhibition of viability: "53.7%"
- molecule: "C#Cc1cccc(Nc2ncnc3cc4c(cc23)OCCOCCOCCO4)c1 [Icotinib] (max concentration tested 10000 nM)"
  percent inhibition of viability: "6.96%"
- molecule: "N#CC(c1ccnc(OCc2ccc(CN3CCOCC3)cc2)n1)c1nc2ccccc2s1 (stereo unspecified) [Bentamapimod] (max concentration tested 10000 nM)"
  percent inhibition of viability: "3.63%"
- molecule: "Cc1[nH]c2ccccc2c1CCNCc1ccc(/C=C/C(=O)NO)cc1 [Panobinostat] (max concentration tested 1000 nM)"
  percent inhibition of viability: "97.1%"
- molecule: "CC(C)Oc1ccc(C(=O)N[C@H](CNC(=O)CN(C)C)Cc2ccc(-c3cn4cccc([C@H](C)O)c4n3)cc2)cc1Cl (max concentration tested 10000 nM)"
  percent inhibition of viability: "67.4%"
- molecule: "CS(=O)(=O)CCNCc1ccc(-c2ccc3ncnc(Nc4ccc(OCc5cccc(F)c5)c(Cl)c4)c3c2)o1 [Lapatinib] (max concentration tested 1000 nM)"
  percent inhibition of viability: "-5.11%"
- molecule: "CC(=O)NCC(=O)N1[C@@H]2CC[C@H]1c1ccc(Nc3ncc(C(F)(F)F)c(NC4CCC4)n3)cc12 (max concentration tested 10000 nM)"
  percent inhibition of viability: "62.7%"

---

# Tested on: NKL (IL-2 2.5 ng/mL)
# assayDetails: percent inhibition of viability; higher = more inhibition
# conditionInfo: 72 h; 100 nM

- compound: "COc1cccc2c1C(=O)c1c(O)c3c(c(O)c1C2=O)C[C@@](O)(C(C)=O)C[C@@H]3O[C@H]1C[C@H](N)[C@H](O)[C@H](C)O1 [Daunorubicin] (max concentration tested 1000 nM)"
  assayedTarget: "NKL (IL-2 2.5 ng/mL)"
  percent inhibition of viability [%]: 104
- compound: "CC(=O)NCC(=O)N1[C@@H]2CC[C@H]1c1ccc(Nc3ncc(C(F)(F)F)c(NC4CCC4)n3)cc12 (max concentration tested 10000 nM)"
  assayedTarget: "NKL (IL-2 2.5 ng/mL)"
  percent inhibition of viability [%]: 54.1
- compound: "COc1cc2c(Nc3ccc(Cl)c(Cl)c3F)ncnc2cc1OC[C@@H]1C[C@@H]2CN(C)C[C@@H]2C1 [XL-647] (max concentration tested 1000 nM)"
  assayedTarget: "NKL (IL-2 2.5 ng/mL)"
  percent inhibition of viability [%]: 18.2
- compound: "CN(C)C(=O)c1cc2cnc(Nc3ccc(N4CCNCC4)cn3)nc2n1C1CCCC1 [NVP-LEE011] (max concentration tested 10000 nM)"
  assayedTarget: "NKL (IL-2 2.5 ng/mL)"
  percent inhibition of viability [%]: -15
- compound: "CO[C@H]1C[C@@H]2CC[C@@H](C)[C@@](O)(O2)C(=O)C(=O)N2CCCC[C@H]2C(=O)O[C@H]([C@H](C)C[C@@H]2CC[C@@H](OC(=O)C(C)(CO)CO)[C@H](OC)C2)CC(=O)[C@H](C)/C=C(\\C)[C@@H](O)[C@@H](OC)C(=O)[C@H](C)C[C@H](C)/C=C/C=C/C=C/1C [Temsirolimus] (max concentration tested 100 nM)"
  assayedTarget: "NKL (IL-2 2.5 ng/mL)"
  percent inhibition of viability [%]: 58.7
- compound: "CN(C)c1cc2c(cc1Sc1nc3c(N)nccc3n1CCNCC(C)(C)C)OCO2 [CUDC-305] (max concentration tested 10000 nM)"
  assayedTarget: "NKL (IL-2 2.5 ng/mL)"
  percent inhibition of viability [%]: 3.23
